B1: Hairpin Ribozyme (parent)
chain: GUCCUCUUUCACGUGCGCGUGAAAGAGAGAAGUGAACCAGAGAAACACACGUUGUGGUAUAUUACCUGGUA

Variants of: B1
test-details: self-cleavage, relative activity (ratio to wild type); higher = more cleavage; co-transcriptional
observation-type: self-cleavage
A bare number is all that is needed in reply.

*Q* Identify self-cleavage associated with the variant C18G A41C
*A* 0.952

*Q* Identify measured self-cleavage corresponding to G29A C46A
*A* 0.0992

*Q* Query self-cleavage for G15A U62G
*A* 0.109

*Q* Complete the entry with self-cleavage for G27C A39C
*A* 0.0945

*Q* Tell me measured self-cleavage for U8A C65A please.
*A* 0.63

*Q* Please list self-cleavage recorded for the variant A44U G69U
*A* 0.299

*Q* Provide one value: measured self-cleavage of U5C A61U
*A* 0.105

*Q* Identify measured self-cleavage associated with U8C C12G
*A* 0.229

*Q* Specify measured self-cleavage for G40A A49G .
*A* 0.182

*Q* Tell us which self-cleavage value is on record for U8A G15C
*A* 0.954

*Q* Identify measured self-cleavage corresponding to U8A A24U
*A* 0.571

*Q* Return self-cleavage for the following variant: A30G A35U
*A* 0.0439

*Q* Find the measured self-cleavage of U8C G19A and report it.
*A* 0.302

*Q* Write down self-cleavage measured for item U14C A41C
*A* 1.18

*Q* # return recorded self-cleavage for input C12G A59C
*A* 0.076

*Q* Look up self-cleavage of U20C G32U and report it.
*A* 0.157

*Q* Using the record for A47C U55C , state its measured self-cleavage.
*A* 0.233

*Q* Hello, please tell me recorded self-cleavage for this one: G17U A44U
*A* 0.0838

*Q* Fill in reported self-cleavage for this entry: A31C A59G
*A* 0.132

*Q* Name the recorded self-cleavage of the item C48A A64C in your answer.
*A* 0.0601
